assay: Phase 1 crossover study: rosuvastatin plasma pharmacokinetics; type: in vivo, human; settings: human, plasma, oral, 10 mg, rosuvastatin 10 mg plus AZD5718 200-mg tablet, fasted; read-out: Rosuvastatin AUC0-last, arithmetic mean (SD)
assay readout: AUC(0-t) (ng·h/mL)

CC(C)c1nc(N(C)S(C)(=O)=O)nc(-c2ccc(F)cc2)c1/C=C/[C@@H](O)C[C@@H](O)CC(=O)O	49.4

====

assay: Phase 1 crossover study: AZD5718 plasma pharmacokinetics; assay type: in vivo, human; details: human, plasma, oral, 200 mg, AZD5718 t1/2 lambda z, arithmetic mean (SD), 200 mg tablet, fed, n = 12
assay readout: half-life

Cc1cc(-c2ccc(C(=O)[C@@H]3CCCC[C@H]3C(=O)Nc3cnn4c3C(=O)NCC4)cc2)n[nH]1 [AZD5718]	13.7 h

====

test: Phase 1 crossover study: AZD5718 plasma pharmacokinetics; format: in vivo, human; details: male, human, plasma, oral, 200 mg, AZD5718 AUC0-last, geometric mean (%CV), 200 mg suspension, fasted, n = 12
assay readout: AUC(0-t) (µM·h)

Cc1cc(-c2ccc(C(=O)[C@@H]3CCCC[C@H]3C(=O)Nc3cnn4c3C(=O)NCC4)cc2)n[nH]1	4.65

====

experiment: Phase 1 crossover study: AZD5718 plasma pharmacokinetics; assay type: in vivo, human; details: human, plasma, oral, 200 mg, AZD5718 AUC0-last, arithmetic mean (SD), 200 mg tablet, fasted, n = 12
assay readout: AUC(0-t) (µM·h)

Cc1cc(-c2ccc(C(=O)[C@@H]3CCCC[C@H]3C(=O)Nc3cnn4c3C(=O)NCC4)cc2)n[nH]1 [AZD5718]	3.49

====

test: Phase 1 crossover study: rosuvastatin plasma pharmacokinetics; type: in vivo, human; details: human, plasma, oral, 10 mg, rosuvastatin 10 mg plus AZD5718 200-mg tablet, fasted, n = 10; read-out: Rosuvastatin AUC0-inf, geometric mean (%CV)
assay readout: AUC(0-inf) (ng·h/mL)

CC(C)c1nc(N(C)S(C)(=O)=O)nc(-c2ccc(F)cc2)c1/C=C/[C@@H](O)C[C@@H](O)CC(=O)O	50.5

====

target: organic anion‐transporting polypeptide 1B1 (OATP1B1) (Homo sapiens, UniProt Q9Y6L6); assay: OATP1B1 transporter inhibition in vitro; details: read-out: IC50, OATP1B1 inhibition, unpublished data
Sequence (Q9Y6L6 whole entry): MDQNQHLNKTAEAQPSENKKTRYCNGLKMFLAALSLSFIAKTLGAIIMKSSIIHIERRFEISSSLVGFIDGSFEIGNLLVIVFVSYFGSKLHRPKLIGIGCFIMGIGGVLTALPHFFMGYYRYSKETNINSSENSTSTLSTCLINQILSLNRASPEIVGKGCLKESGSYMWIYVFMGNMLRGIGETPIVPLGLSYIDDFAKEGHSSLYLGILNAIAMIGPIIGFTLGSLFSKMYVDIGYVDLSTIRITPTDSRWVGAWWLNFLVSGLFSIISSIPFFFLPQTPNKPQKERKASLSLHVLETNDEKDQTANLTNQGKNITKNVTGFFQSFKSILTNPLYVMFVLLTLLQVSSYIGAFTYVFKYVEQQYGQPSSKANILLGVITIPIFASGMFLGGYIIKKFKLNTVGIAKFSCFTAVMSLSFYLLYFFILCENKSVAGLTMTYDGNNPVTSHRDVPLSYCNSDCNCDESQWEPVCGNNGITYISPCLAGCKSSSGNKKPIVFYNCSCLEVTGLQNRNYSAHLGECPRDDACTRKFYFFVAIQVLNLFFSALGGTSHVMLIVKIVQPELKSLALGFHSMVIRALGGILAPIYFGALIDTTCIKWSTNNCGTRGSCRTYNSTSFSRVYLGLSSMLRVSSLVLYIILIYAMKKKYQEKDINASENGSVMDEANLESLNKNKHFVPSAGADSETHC
pIC50: −log10 of the molar value.
assay readout: pIC50

Cc1cc(-c2ccc(C(=O)[C@@H]3CCCC[C@H]3C(=O)Nc3cnn4c3C(=O)NCC4)cc2)n[nH]1 [AZD5718]	5.64

====

assay: Phase 1 crossover study: AZD5718 plasma pharmacokinetics; type: in vivo, human; details: human, plasma, oral, 200 mg, AZD5718 tmax, median (range), 200 mg suspension, fasted, n = 12
assay readout: Tmax (h)

Cc1cc(-c2ccc(C(=O)[C@@H]3CCCC[C@H]3C(=O)Nc3cnn4c3C(=O)NCC4)cc2)n[nH]1	1

====

assay: Phase 1 crossover study: rosuvastatin plasma pharmacokinetics; format: in vivo, human; settings: human, plasma, oral, 10 mg, rosuvastatin 10 mg plus AZD5718 200-mg tablet, fasted; read-out: Rosuvastatin AUC0-last, geometric mean (%CV)
assay readout: AUC(0-t) (ng·h/mL)

CC(C)c1nc(N(C)S(C)(=O)=O)nc(-c2ccc(F)cc2)c1/C=C/[C@@H](O)C[C@@H](O)CC(=O)O	43.5
